Target: wild type B-Raf (Homo sapiens (Human))
Sequence (P15056 whole entry): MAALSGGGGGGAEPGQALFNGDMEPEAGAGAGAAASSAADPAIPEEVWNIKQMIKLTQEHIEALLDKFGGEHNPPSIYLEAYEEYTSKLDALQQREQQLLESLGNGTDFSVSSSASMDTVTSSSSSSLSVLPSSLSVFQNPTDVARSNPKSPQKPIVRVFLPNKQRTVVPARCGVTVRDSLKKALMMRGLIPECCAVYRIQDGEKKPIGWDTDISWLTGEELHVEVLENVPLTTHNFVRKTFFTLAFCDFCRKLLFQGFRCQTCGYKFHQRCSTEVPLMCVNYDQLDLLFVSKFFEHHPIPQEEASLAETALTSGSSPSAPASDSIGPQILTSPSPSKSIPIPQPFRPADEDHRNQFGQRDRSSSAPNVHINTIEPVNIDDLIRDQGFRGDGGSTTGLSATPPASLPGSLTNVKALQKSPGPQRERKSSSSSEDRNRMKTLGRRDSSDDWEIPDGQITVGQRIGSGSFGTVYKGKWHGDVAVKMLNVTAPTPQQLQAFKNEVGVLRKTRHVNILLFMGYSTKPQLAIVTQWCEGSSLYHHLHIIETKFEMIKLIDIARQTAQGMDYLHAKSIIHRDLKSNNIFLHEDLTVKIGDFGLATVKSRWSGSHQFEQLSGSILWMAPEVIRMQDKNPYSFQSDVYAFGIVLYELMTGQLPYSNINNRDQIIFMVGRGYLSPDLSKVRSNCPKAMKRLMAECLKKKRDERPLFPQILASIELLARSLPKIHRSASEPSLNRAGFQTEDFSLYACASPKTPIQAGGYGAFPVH
Test: WT B-Raf IC50 assay, time-resolved fluorescence energy transfer
Type: biochemical
Conditions: 2.5 mM ATP; read-out: IC50 (nM) B-Raf^WT 2.5 mM ATP
parameter_measured: IC50 (nM)
Give bare numbers, in nM.

[
  {
    "smiles_string": "O=C1CCc2c(Oc3ccc4c(c3)[C@H]3[C@H](NC(=O)Nc5ccc(Cl)c(Cl)c5)[C@H]3O4)ccnc2N1",
    "readout_value": 49
  },
  {
    "smiles_string": "O=C1CCc2c(Oc3ccc4c(c3)[C@H]3[C@H](NC(=O)Nc5cc(C(F)(F)F)ccc5F)[C@H]3O4)ccnc2N1",
    "readout_value": 75
  },
  {
    "smiles_string": "Cc1cc(NC(=O)N[C@@H]2[C@H]3Oc4ccc(Oc5ccnc6c5CCC(=O)N6)cc4[C@@H]23)ccc1F",
    "readout_value": 7.7
  }
]

Kindly review the next compound as well.
// lookup IC50 for "O=C1CCc2c(Oc3ccc4c(c3)[C@H]3[C@H](NC(=O)Nc5cc(F)ccc5F)[C@H]3O4)ccnc2N1"
5.9

====

Answer each item with its documented IC50.
Biological target: wild type B-Raf (Homo sapiens (Human))
Assay: WT B-Raf IC50 assay, time-resolved fluorescence energy transfer
Type: biochemical
Conditions: Km ATP (2.9 μM ATP); read-out: IC50 (nM) B-Raf^WT Km ATP
Give bare numbers, in nM.

[
  {
    "smiles_string": "C#Cc1cccc(NC(=O)N[C@@H]2[C@H]3Oc4ccc(Oc5ccnc6c5CCC(=O)N6)cc4[C@@H]23)c1",
    "parameter_measured": "IC50",
    "readout_value": 2.8
  }
]

I need IC50 for every entry listed below, if you could help.
1. O=C1CCc2c(Oc3ccc4c(c3)[C@H]3[C@H](NC(=O)Nc5c(F)cccc5F)[C@H]3O4)ccnc2N1
2. O=C1CCc2c(Oc3ccc4c(c3)[C@H]3[C@H](NC(=O)Nc5c(F)cc(F)cc5F)[C@H]3O4)ccnc2N1
3. O=C1CCc2c(Oc3ccc4c(c3)[C@H]3[C@H](NC(=O)Nc5ccccc5F)[C@H]3O4)ccnc2N1
4. COc1cc(NC(=O)N[C@@H]2[C@H]3Oc4ccc(Oc5ccnc6c5CCC(=O)N6)cc4[C@@H]23)ccn1
5. O=C1CCc2c(Oc3ccc4c(c3)[C@H]3[C@H](NC(=O)Nc5cccc(C(F)(F)F)c5)[C@H]3O4)ccnc2N1
6. O=C1CCc2c(Oc3ccc4c(c3)[C@H]3[C@H](NC(=O)Nc5cc(F)ccc5F)[C@H]3O4)ccnc2N1
7. O=C1CCc2c(Oc3ccc4c(c3)[C@H]3[C@H](NC(=O)Nc5ccc(F)cc5)[C@H]3O4)ccnc2N1

1. 1.9
2. 2
3. 0.87
4. 2.4
5. 13
6. 2.1
7. 0.57

====

Exercise: state measured log10 IC50 for each of the molecules provided.
Target: B-Raf (V600E) (Homo sapiens (Human), UniProt P15056, V600E)
Sequence (P15056 whole entry V600E): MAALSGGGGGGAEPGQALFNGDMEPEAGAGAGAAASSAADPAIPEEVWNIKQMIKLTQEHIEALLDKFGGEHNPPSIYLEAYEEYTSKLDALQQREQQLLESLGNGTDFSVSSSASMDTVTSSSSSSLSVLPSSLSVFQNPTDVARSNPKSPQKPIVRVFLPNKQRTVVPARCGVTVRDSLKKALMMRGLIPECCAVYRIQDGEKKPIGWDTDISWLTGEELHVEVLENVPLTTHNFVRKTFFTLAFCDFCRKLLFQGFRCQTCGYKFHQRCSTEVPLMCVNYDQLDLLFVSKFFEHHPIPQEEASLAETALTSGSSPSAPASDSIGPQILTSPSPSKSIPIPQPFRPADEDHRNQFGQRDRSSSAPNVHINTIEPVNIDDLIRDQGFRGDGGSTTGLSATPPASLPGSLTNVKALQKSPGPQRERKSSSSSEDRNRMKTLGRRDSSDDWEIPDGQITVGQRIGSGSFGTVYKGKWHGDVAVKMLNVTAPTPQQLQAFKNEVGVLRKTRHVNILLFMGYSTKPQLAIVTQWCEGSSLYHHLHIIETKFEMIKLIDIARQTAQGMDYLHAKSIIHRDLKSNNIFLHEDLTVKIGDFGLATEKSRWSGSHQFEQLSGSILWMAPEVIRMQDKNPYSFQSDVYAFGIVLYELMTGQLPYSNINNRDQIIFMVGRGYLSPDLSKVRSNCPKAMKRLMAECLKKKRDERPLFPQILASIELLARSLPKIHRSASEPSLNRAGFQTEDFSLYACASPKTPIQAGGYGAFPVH
Assay: Raf IC50 assay, time-resolved fluorescence energy transfer, B-Raf (V600E)
Format: biochemical
Details: 0.1 mM ATP; read-out: IC50 (nM) B_Raf^V600E
Values are log10 of IC50 in nM.

For every record below, what is its log10 IC50?
1. CCN1CCN(c2ccc(NC(=O)N[C@@H]3[C@H]4Oc5ccc(Oc6ccnc7c6CCC(=O)N7)cc5[C@@H]34)cc2C(F)(F)F)CC1
2. O=C1CCc2c(Oc3ccc4c(c3)[C@H]3[C@H](NC(=O)N[C@H]5CCCc6ccccc65)[C@H]3O4)ccnc2N1
3. O=C1CCc2c(Oc3ccc4c(c3)[C@H]3[C@H](NC(=O)Nc5cc(C(F)(F)F)ccc5F)[C@H]3O4)ccnc2N1
4. C#Cc1cccc(NC(=O)N[C@@H]2[C@H]3Oc4ccc(Oc5ccnc6c5CCC(=O)N6)cc4[C@@H]23)c1
5. COc1cc(NC(=O)N[C@@H]2[C@H]3Oc4ccc(Oc5ccnc6c5CCC(=O)N6)cc4[C@@H]23)c(Cl)cc1Cl
6. CCCCCCCCCCNC(=O)N[C@@H]1[C@H]2Oc3ccc(Oc4ccnc5c4CCC(=O)N5)cc3[C@@H]12
7. O=C1CCc2c(Oc3ccc4c(c3)[C@H]3[C@H](NC(=O)NC5CCCCC5)[C@H]3O4)ccnc2N1

1. 2.36
2. 0.51
3. 0.98
4. 0.28
5. 1.04
6. 2.11
7. 0.36

====

Provide the recorded IC50 for the entries that follow.
Molecular target: wild type B-Raf (Homo sapiens (Human))
Test: WT B-Raf IC50 assay, time-resolved fluorescence energy transfer
Format: biochemical
Conditions: Km ATP (2.9 μM ATP); read-out: IC50 (nM) B-Raf^WT Km ATP
Answers are plain numbers, in nM.

Some solved entries appear below for comparison.
[
  {
    "smiles_string": "CNC(=O)c1cc(Oc2ccc3c(c2)[C@H]2[C@H](NC(=O)Nc4cc(F)c(F)cc4F)[C@H]2O3)ccn1",
    "unit_of_measurement": "nM",
    "readout_value": 17
  },
  {
    "smiles_string": "O=C1CCc2c(Oc3ccc4c(c3)[C@H]3[C@H](NC(=O)Nc5c(F)ccc(F)c5F)[C@H]3O4)ccnc2N1",
    "unit_of_measurement": "nM",
    "readout_value": 2.5
  }
]

Working through the 5 molecules below one at a time, give IC50 for each.
1. O=C1CCc2c(Oc3ccc4c(c3)[C@H]3[C@H](NC(=O)NC5CCCCCC5)[C@H]3O4)ccnc2N1
2. O=C1CCc2c(Oc3ccc4c(c3)[C@H]3[C@H](NC(=O)Nc5ccc(Cl)cc5C(F)(F)F)[C@H]3O4)ccnc2N1
3. O=C1CCc2c(Oc3ccc4c(c3)[C@H]3[C@H](NC(=O)NC5CCCCC5)[C@H]3O4)ccnc2N1
4. O=C1CCc2c(Oc3ccc4c(c3)[C@H]3[C@H](NC(=O)Nc5cccc(F)c5F)[C@H]3O4)ccnc2N1
5. O=C1CCc2c(Oc3ccc4c(c3)[C@H]3[C@H](NC(=O)Nc5cc(F)c(F)c(F)c5)[C@H]3O4)ccnc2N1

1: 1.7; 2: 21; 3: 2.3; 4: 1.5; 5: 6.4

For every record below, what is its IC50?
1. CCN1CCN(Cc2ccc(NC(=O)N[C@@H]3[C@H]4Oc5ccc(Oc6ccnc7c6CCC(=O)N7)cc5[C@@H]34)cc2C(F)(F)F)CC1
2. O=C1CCc2c(Oc3ccc4c(c3)[C@H]3[C@H](NC(=O)Nc5ccc(Cl)c(Cl)c5)[C@H]3O4)ccnc2N1

1: 13; 2: 16

Report IC50 for every entry below.
1. O=C1CCc2c(Oc3ccc4c(c3)[C@H]3[C@H](NC(=O)Nc5ccc(C(F)(F)F)cc5F)[C@H]3O4)ccnc2N1
2. O=C1CCc2c(Oc3ccc4c(c3)[C@H]3[C@H](NC(=O)Nc5cc(F)cc(C(F)(F)F)c5)[C@H]3O4)ccnc2N1
3. O=C1CCc2c(Oc3ccc4c(c3)[C@H]3[C@H](NC(=O)Nc5cccc(C(F)(F)F)c5F)[C@H]3O4)ccnc2N1
4. O=C1CCc2c(Oc3ccc4c(c3)[C@H]3[C@H](NC(=O)Nc5cc(F)cc(F)c5)[C@H]3O4)ccnc2N1
5. O=C1CCc2c(Oc3ccc4c(c3)[C@H]3[C@H](NC(=O)Nc5cccc(F)c5)[C@H]3O4)ccnc2N1
6. CC(C)(N)c1cc(NC(=O)N[C@@H]2[C@H]3Oc4ccc(Oc5ccnc6c5CCC(=O)N6)cc4[C@@H]23)cc(C(F)(F)F)c1

1: 23; 2: 30; 3: 23; 4: 3.7; 5: 1.7; 6: 15

Entry "O=C1CCc2c(Oc3ccc4c(c3)[C@H]3[C@H](NC(=O)Nc5ccc(F)c(C(F)(F)F)c5)[C@H]3O4)ccnc2N1" , system wild type B-Raf (Homo sapiens (Human)): what IC50 was measured?
17
